System: MCF7
experiment: SRB antiproliferative assay, MCF7
Assay type: cell-based, human
condition-set: Homo sapiens, MCF7; SRB, 48 h; read-out: GI50 MCF7
Listed molecules paired with reported GI50
Provide the reading as a plain figure in µM.

Record excerpt, results attached:
molecule: CS(=O)(=O)NCCCNc1ccnc2cc(C(F)(F)F)ccc12 [Compound 23]
assay-readout: GI50
unit-spec: µM
measured: 25.3
//
molecule: COC(=O)c1sccc1S(=O)(=O)N1CCN(c2ccnc3cc(Cl)ccc23)CC1 [Compound 2]
assay-readout: GI50
unit-spec: µM
measured: 22.4
//
molecule: CS(=O)(=O)N1CCN(c2ccnc3cc(C(F)(F)F)ccc23)CC1 [Compound 11]
assay-readout: GI50
unit-spec: µM
measured: 25.6

Then there is this molecule:
Which GI50 value is on record for O=[N+]([O-])c1cccc(S(=O)(=O)NCCCNc2ccnc3cc(Cl)ccc23)c1 [Compound 18] ? 8.62

----------
System: MCF7
experiment: SRB antiproliferative assay, MCF7
Assay type: cell-based, human
condition-set: Homo sapiens, MCF7; SRB, 48 h; read-out: GI50 MCF7
Strictly below 8 µM in GI50: MET. Otherwise: NOT MET.

molecule: O=[N+]([O-])c1cccc(S(=O)(=O)NCCCNc2ccnc3cc(C(F)(F)F)ccc23)c1 [Compound 26]
target-system: MCF7
assigned-label: NOT MET
//
molecule: O=S(=O)(NCCCNc1ccnc2cc(Cl)ccc12)c1ccc(Cl)cc1Cl [Compound 21]
target-system: MCF7
assigned-label: MET
//
molecule: Cc1ccc(S(=O)(=O)NCCCNc2ccnc3cc(Cl)ccc23)cc1 [Compound 16]
target-system: MCF7
assigned-label: MET
//
molecule: COC(=O)c1sccc1S(=O)(=O)NCCCNc1ccnc2cc(C(F)(F)F)ccc12 [Compound 31]
target-system: MCF7
assigned-label: MET

Now for another entry.
Is 8 µM strictly greater than the molecule's reported GI50? molecule: O=[N+]([O-])c1ccc(S(=O)(=O)N2CCN(c3ccnc4cc(C(F)(F)F)ccc34)CC2)c([N+](=O)[O-])c1 [Compound 12] NOT MET

----------
Listed compounds paired with reported GI50
Test system: MCF7
experiment: SRB antiproliferative assay, MCF7
Format: cell-based, human
condition-set: Homo sapiens, MCF7; SRB, 48 h; read-out: GI50 MCF7
Provide the reading as a plain figure in µM.

smiles-record: Cc1ccc(S(=O)(=O)NCCCNc2ccnc3cc(C(F)(F)F)ccc23)cc1
assay-readout: GI50
measured: 6.9
//
smiles-record: COC(=O)c1sccc1S(=O)(=O)N1CCN(c2ccnc3cc(C(F)(F)F)ccc23)CC1
assay-readout: GI50
measured: 16
//
smiles-record: O=[N+]([O-])c1ccc(S(=O)(=O)NCCCNc2ccnc3cc(C(F)(F)F)ccc23)c([N+](=O)[O-])c1
assay-readout: GI50
measured: 5.56
//
smiles-record: O=S(=O)(c1ccc(Cl)cc1)N1CCN(c2ccnc3cc(Cl)ccc23)CC1
assay-readout: GI50
measured: 4.31
//
smiles-record: Cc1ccc(S(=O)(=O)N2CCN(c3ccnc4cc(C(F)(F)F)ccc34)CC2)cc1
assay-readout: GI50
measured: 20.8
//
smiles-record: CN(C)c1cccc2c(S(=O)(=O)NCCCNc3ccnc4cc(C(F)(F)F)ccc34)cccc12
assay-readout: GI50
measured: 7.73
//
smiles-record: O=[N+]([O-])c1ccc(S(=O)(=O)NCCCNc2ccnc3cc(Cl)ccc23)c([N+](=O)[O-])c1
assay-readout: GI50
measured: 6.16

Then there is this compound:
Record `O=[N+]([O-])c1cccc(S(=O)(=O)N2CCN(c3ccnc4cc(C(F)(F)F)ccc34)CC2)c1` : what is its GI50 with MCF7? 9.44
